Target: TASK-2 (Mus musculus, UniProt Q9JK62)
Construct: full-length TASK-2 plasmid transiently expressed in HEK-293 cells with separate GFP marker plasmid; homodimer
Sequence (Q9JK62 1-502): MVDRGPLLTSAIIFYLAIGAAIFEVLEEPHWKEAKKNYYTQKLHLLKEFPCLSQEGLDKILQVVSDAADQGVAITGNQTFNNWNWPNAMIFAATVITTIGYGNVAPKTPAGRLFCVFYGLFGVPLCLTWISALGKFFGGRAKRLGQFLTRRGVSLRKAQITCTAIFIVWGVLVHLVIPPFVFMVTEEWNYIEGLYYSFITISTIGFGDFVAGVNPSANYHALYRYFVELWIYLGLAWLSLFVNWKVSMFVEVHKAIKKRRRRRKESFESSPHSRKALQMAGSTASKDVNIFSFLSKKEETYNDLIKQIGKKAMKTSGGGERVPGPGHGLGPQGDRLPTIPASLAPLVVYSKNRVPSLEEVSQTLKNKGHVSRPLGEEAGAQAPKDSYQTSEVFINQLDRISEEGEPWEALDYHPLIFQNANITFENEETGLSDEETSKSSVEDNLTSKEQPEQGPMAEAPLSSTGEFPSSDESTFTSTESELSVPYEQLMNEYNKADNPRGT
Assay: whole-cell patch clamp, transfected HEK-293 cells
endpoint: IC50 (µM)
Please give a number only; it is taken to be in µM.

Noted for NCCC(Oc1ccc(C(F)(F)F)cc1)c1ccccc1 (racemic) [norfluoxetine] : its IC50 reads 17
